// reported pKd per item
# targetSystem: T1, cynomolgus Gamma/Delta1A TCR-Fc fusion protein (cynomolgus monkey, biotinylated in vitro with recombinant BirA (AviTag))
# T1 construct: First chain = delta, second = gamma; also called Cyno D1; cyno D1; not shown: Fc portion of mouse IgG, then AviTag and His6 tag at the C-terminus; Fc portion of mouse IgG
# T1 sequence (chain, as listed by the source mutant, chain 1 of 2): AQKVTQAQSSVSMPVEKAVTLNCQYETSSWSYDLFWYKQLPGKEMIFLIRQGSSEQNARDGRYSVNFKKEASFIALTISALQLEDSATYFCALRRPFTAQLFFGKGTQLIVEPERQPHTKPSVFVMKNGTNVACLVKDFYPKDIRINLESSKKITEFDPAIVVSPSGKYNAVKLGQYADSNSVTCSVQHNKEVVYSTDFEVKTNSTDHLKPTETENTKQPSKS
# T1 sequence (chain, as listed by the source mutant, chain 2 of 2): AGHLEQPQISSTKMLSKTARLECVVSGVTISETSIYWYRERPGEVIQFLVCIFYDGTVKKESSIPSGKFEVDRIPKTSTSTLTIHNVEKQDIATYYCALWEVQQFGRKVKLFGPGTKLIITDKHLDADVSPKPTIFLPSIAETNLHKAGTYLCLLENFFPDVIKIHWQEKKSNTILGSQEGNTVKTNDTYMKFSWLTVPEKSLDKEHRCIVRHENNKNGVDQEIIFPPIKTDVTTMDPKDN
# testName: bead binding assay (TCR-Fc on streptavidin beads, IgG titrated, flow cytometry); apparent KD, s.d. of triplicates
Conceptually, pKd converts a concentration in mol/L into minus its log10.

>  <binder>
Delta1-25 (antibody, V domains shown, Tested in the human IgG format) VH: EVQLVESGGGLVQPGGSLRLSCAASGFTVSSSSIHWVRQAPGKGLEWVASIYSSSGYTYYADSVKGRFTISADTSKNTAYLQMNSLRAEDTAVYYCARDPGSYYWYYSGSAYEGYGLDYWGQGTLVTVSS VL: DIQMTQSPSSLSASVGDRVTITCRASQSVSSAVAWYQQKPGKAPKLLIYAASSLQSGVPSRFSGSRSGTDFTLTISSLQPEDFATYYCQQIGRRSSLITFGQGTKVEIKR

>  <measuredNumber>
9.32

$$$$
>  <binder>
Delta1-28 (antibody, V domains shown, Tested in the human IgG format) VH: EVQLVESGGGLVQPGGSLRLSCAASGFTVSSSSIHWVRQAPGKGLEWVASIYSSSGYTYYADSVKGRFTISADTSKNTAYLQMNSLRAEDTAVYYCARDPGSYYWYYSGSAYEGYGLDYWGQGTLVTVSS VL: DIQMTQSPSSLSASVGDRVTITCRASQSVSSAVAWYQQKPGKAPKLLIYAASSLQSGVPSRFSGSRSGTDFTLTISSLQPEDFATYYCQQWMRSSSLFTFGQGTKVEIKR

>  <measuredNumber>
9.44

$$$$
>  <binder>
Delta1-23 (antibody, V domains shown, Tested in the human IgG format; also called anti-Delta1-23) VH: EVQLVESGGGLVQPGGSLRLSCAASGFTVSSSSIHWVRQAPGKGLEWVASIYSSSGYTYYADSVKGRFTISADTSKNTAYLQMNSLRAEDTAVYYCARDPGSYYWYYSGSAYEGYGLDYWGQGTLVTVSS VL: DIQMTQSPSSLSASVGDRVTITCRASQSVSSAVAWYQQKPGKAPKLLIYAASSLQSGVPSRFSGSRSGTDFTLTISSLQPEDFATYYCQQQSKYPFLITFGQGTKVEIKR

>  <measuredNumber>
8.89

$$$$

# pKd (binder: Delta1-22 (antibody, V domains shown, Tested in the human IgG format) VH: EVQLVESGGGLVQPGGSLRLSCAASGFTVSSSSIHWVRQAPGKGLEWVASIYSSSGYTYYADSVKGRFTISADTSKNTAYLQMNSLRAEDTAVYYCARDPGSYYWYYSGSAYEGYGLDYWGQGTLVTVSS VL: DIQMTQSPSSLSASVGDRVTITCRASQSVSSAVAWYQQKPGKAPKLLIYAASSLQSGVPSRFSGSRSGTDFTLTISSLQPEDFATYYCQQRSRYYSLITFGQGTKVEIKR ) is 9.21

# pKd (binder: Delta1-21 (antibody, V domains shown, Tested in the human IgG format) VH: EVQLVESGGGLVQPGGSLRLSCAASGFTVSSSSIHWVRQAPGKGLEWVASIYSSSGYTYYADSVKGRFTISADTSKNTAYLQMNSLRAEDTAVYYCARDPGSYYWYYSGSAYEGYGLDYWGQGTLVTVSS VL: DIQMTQSPSSLSASVGDRVTITCRASQSVSSAVAWYQQKPGKAPKLLIYAASSLQSGVPSRFSGSRSGTDFTLTISSLQPEDFATYYCQQQQRTSYLITFGQGTKVEIKR ) is 8.76

# pKd (binder: Delta1-19 (antibody, V domains shown, Tested in the human IgG format) VH: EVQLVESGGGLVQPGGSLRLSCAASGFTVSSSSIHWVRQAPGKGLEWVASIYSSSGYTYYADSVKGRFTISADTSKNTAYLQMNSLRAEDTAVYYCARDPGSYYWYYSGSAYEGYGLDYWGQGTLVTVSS VL: DIQMTQSPSSLSASVGDRVTITCRASQSVSSAVAWYQQKPGKAPKLLIYAASSLQSGVPSRFSGSRSGTDFTLTISSLQPEDFATYYCQQMDRFYSLITFGQGTKVEIKR ) is 9.60
